- Test system: 699152-130-R-J1-PDC complex spheroid growth
- experiment: Anticancer human tumor 699152-130-R-J1-PDC patient-derived pancreatic carcinoma cell line growth inhibition [AhR]
- run-parameters: second compound 0.1 µM; first compound 0.00949 µM; stronger effect = lower value

[
  {
    "molecule": "Nc1ncn(C2CC(O)C(CO)S2)c(=O)n1 (stereo not drawn) + Cc1cncc(-c2nc(NCCc3c[nH]c4ccccc34)c3ncn(C(C)C)c3n2)c1",
    "assay-target": "699152-130-R-J1-PDC complex spheroid growth",
    "viability, T/C": "99.9%"
  },
  {
    "molecule": "CCc1c2c(nc3ccc(O)cc13)-c1cc3c(c(=O)n1C2)COC(=O)[C@]3(O)CC + CC(CO)NC(=O)c1cc(-c2ccc(Cl)cc2)nn(-c2cnn(C)c2)c1=O",
    "assay-target": "699152-130-R-J1-PDC complex spheroid growth",
    "viability, T/C": "56.5%"
  },
  {
    "molecule": "Nc1ncn(C2CC(O)C(CO)S2)c(=O)n1 (stereo not drawn) + CC(CO)NC(=O)c1cc(-c2ccc(Cl)cc2)nn(-c2cnn(C)c2)c1=O",
    "assay-target": "699152-130-R-J1-PDC complex spheroid growth",
    "viability, T/C": "85.7%"
  }
]

---

- System: 699152-130-R-J1-PDC complex spheroid growth
- experiment: Anticancer human tumor 699152-130-R-J1-PDC cell line growth inhibition [AhR];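 further: compound exposure lasted 7 days after spheroids had grown for 3 days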
- run-parameters: second compound 1 µM; first compound 0.0316 µM; stronger effect = lower value

[
  {
    "compound": "O=C(C=Cc1cccc(S(=O)(=O)Nc2ccccc2)c1)NO + Cc1ccccc1N=Nc1ccc(NC(=O)c2ccnn2C)c(C)c1",
    "viability, T/C, %": 97.5
  },
  {
    "compound": "CC(C)c1c(-c2ccccc2)nc2c(C#N)c[nH]n2c1=O + Cc1cncc(-c2nc(NCCc3c[nH]c4ccccc34)c3ncn(C(C)C)c3n2)c1",
    "viability, T/C, %": 118
  },
  {
    "compound": "COc1cccc2c1C(=O)c1c(O)c3c(c(O)c1C2=O)CC(O)(C(=O)CO)CC3OC1CC(N)C(O)C(C)O1 (stereo unspecified) + Cc1ccccc1N=Nc1ccc(NC(=O)c2ccnn2C)c(C)c1",
    "viability, T/C, %": 65.5
  },
  {
    "compound": "CC1COCCN1c1cc(-c2ccnn2C)c2ccnc(-c3ccn[nH]3)c2n1 (stereo unspecified) + Cc1ccccc1N=Nc1ccc(NC(=O)c2ccnn2C)c(C)c1",
    "viability, T/C, %": 101
  },
  {
    "compound": "Nc1ccn(C2OC(CO)C(O)C2(F)F)c(=O)n1 (stereo unspecified) + CC(CO)NC(=O)c1cc(-c2ccc(Cl)cc2)nn(-c2cnn(C)c2)c1=O",
    "viability, T/C, %": 68.8
  },
  {
    "compound": "CC1COCCN1c1cc(C2(S(C)(=N)=O)CC2)nc(-c2ccnc3[nH]ccc23)n1 (stereo unspecified) + CC(CO)NC(=O)c1cc(-c2ccc(Cl)cc2)nn(-c2cnn(C)c2)c1=O",
    "viability, T/C, %": 98.6
  }
]

---

Listed here: items and their measured pIC50.
- System: 699152-130-R-J1-PDC complex spheroid growth
- experiment: Anticancer human tumor 699152-130-R-J1-PDC cell line growth inhibition [AhR];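 further: compound exposure lasted 7 days after spheroids had grown for 3 days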
- run-parameters: curve of first compound; second compound 0.1 µM
pIC50: −log10 of the molar value.
parameter-measured: pIC50

[
  {
    "compound": "COc1cc(C2c3cc4c(cc3C(OC3OC5COC(C)OC5C(O)C3O)C3COC(=O)C23)OCO4)cc(OC)c1O (centres undefined) + Cc1ccccc1N=Nc1ccc(NC(=O)c2ccnn2C)c(C)c1",
    "assay-target": "699152-130-R-J1-PDC complex spheroid growth",
    "result": "< 5.00"
  },
  {
    "compound": "Nc1ccccc1NC(=O)c1ccc(CNC(=O)OCc2cccnc2)cc1 + CC(CO)NC(=O)c1cc(-c2ccc(Cl)cc2)nn(-c2cnn(C)c2)c1=O",
    "assay-target": "699152-130-R-J1-PDC complex spheroid growth",
    "result": 5.08
  },
  {
    "compound": "Nc1ncn(C2CC(O)C(CO)S2)c(=O)n1 (centres undefined) + Cc1ccccc1N=Nc1ccc(NC(=O)c2ccnn2C)c(C)c1",
    "assay-target": "699152-130-R-J1-PDC complex spheroid growth",
    "result": "< 6.52"
  },
  {
    "compound": "O=C(c1cc(Cc2n[nH]c(=O)c3ccccc23)ccc1F)N1CCN(C(=O)C2CC2)CC1 + Cc1ccccc1N=Nc1ccc(NC(=O)c2ccnn2C)c(C)c1",
    "assay-target": "699152-130-R-J1-PDC complex spheroid growth",
    "result": "< 5.00"
  }
]
